Answer each item with its documented EC50 [µM], FXa generation assay.
Biological target: human Factor IXa (human, UniProt P00740 47-191; P00740 227-461)
Assay: cell-based or functional assay
Square brackets hold non-standard residues; d marks the D form. Ends that are not written are not given here. NMeY = CN[C@@H](Cc1ccc(O)cc1)C(=O)O

binder	measured_value
RRAPGKL[dT]CLASYCWLFWTGIA (not fully specified (C-terminus, bridges); printed as RRAPGKLtCLASYCWLFWTGIA; cysteine pairing not given here) [RRAPGKLtCLASYCWLFWTGIA]	> 1 µM

The record that follows has no EC50 [µM], FXa generation assay shown yet.
Query: What value of EC50 [µM], FXa generation assay has been reported for the following binder? RRAPGKLTCLAS[NMeY]CWLFWTGIA (not fully specified (bridges); printed as RRAPGKLTCLAS-MeTyr-CWLFWTGIA; cysteine pairing not given here) [RRAPGKLTCLAS-MeTyr-CWLFWTGIA]
Reply: > 1 µM
